target: δ-opioid receptor (Homo sapiens); construct: expressed in transfected cells; host or cells: CHO cells; experiment: biochemical; format: binding; conditions: Ki (nM) ± SEM, δ, Table 1b, N-oxides
Sequence (P41143 whole entry): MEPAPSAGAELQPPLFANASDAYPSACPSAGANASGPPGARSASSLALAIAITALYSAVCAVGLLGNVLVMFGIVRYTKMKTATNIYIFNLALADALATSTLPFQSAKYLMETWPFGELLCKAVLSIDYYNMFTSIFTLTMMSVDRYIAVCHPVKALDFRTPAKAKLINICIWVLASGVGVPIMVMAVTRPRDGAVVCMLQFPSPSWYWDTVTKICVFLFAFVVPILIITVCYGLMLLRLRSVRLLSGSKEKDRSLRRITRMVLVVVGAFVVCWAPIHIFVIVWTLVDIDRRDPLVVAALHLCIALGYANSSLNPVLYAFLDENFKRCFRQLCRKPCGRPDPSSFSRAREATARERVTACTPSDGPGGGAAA
reported.endpoint: Ki (nM)
Give just the number in nM; leave the unit off.

Some compounds with recorded Ki:
- compound: "CN(C(=O)c1ccc(I)cc1)C1CCC2(O)C3Cc4ccc(O)c5c4C2(CC[N+]3([O-])CC2CC2)C1O5 (stereo not drawn)"
  experimental.system: "δ-opioid receptor (Homo sapiens)"
  Ki [nM]: 3060
- compound: "O=C(Cc1ccccc1)N[C@@H]1CC[C@@]2(O)[C@H]3Cc4ccc(O)c5c4[C@@]2(CC[N+]3([O-])CC2CC2)[C@H]1O5 (stereo partly drawn)"
  experimental.system: "δ-opioid receptor (Homo sapiens)"
  Ki [nM]: 1400

# ---- query compound ----
Data point: COc1ccc(C(=O)N[C@H]2CC[C@@]3(O)[C@H]4Cc5ccc(O)c6c5[C@@]3(CC[N+]4([O-])CC3CC3)[C@H]2O6)cc1OC (stereo partly drawn) ; Ki = 51
